Biological target: UniProt:P21397
Sequence (P21397 whole entry): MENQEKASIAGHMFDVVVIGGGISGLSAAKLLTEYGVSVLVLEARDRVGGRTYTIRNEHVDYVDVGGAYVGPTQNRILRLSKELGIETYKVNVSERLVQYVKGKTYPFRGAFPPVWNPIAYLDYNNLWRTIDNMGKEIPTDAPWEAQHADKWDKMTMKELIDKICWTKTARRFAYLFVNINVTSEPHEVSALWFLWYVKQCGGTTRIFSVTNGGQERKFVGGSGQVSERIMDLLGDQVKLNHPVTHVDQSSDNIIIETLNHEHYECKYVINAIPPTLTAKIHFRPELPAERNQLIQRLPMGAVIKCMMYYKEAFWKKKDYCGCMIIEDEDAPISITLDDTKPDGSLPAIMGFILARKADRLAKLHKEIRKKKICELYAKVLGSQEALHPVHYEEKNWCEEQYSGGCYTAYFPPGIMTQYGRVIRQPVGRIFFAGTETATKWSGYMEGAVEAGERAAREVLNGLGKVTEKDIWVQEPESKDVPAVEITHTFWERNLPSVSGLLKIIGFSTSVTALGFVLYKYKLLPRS
Assay: DRUGMATRIX: Monoamine Oxidase MAO-A enzyme inhibition (substrate: Kynuramine)
Design: species or system BTI-TN-5B1-4
Settings: Not Active = under 50% inhibition at 10 µM; read-out: IC50
pIC50: −log10 of the molar value.
measurement label: pIC50

compound="CCCCNc1ccc(C(=O)OCCN(C)C)cc1 [TETRACAINE]" val=6.50
compound="CCCOc1ccc(C(=O)OCCN(CC)CC)cc1N [PROPARACAINE]" val=5.75
compound="COC(=O)Nc1nc2ccc(C(=O)c3cccs3)cc2[nH]1 [NOCODAZOLE]" val=4.62

Taken from ChEMBL document CHEMBL1909046.
